Reference for the values: ChEMBL document CHEMBL1142796

# systemName: Neuronal acetylcholine receptor subunit alpha-7 (Rattus norvegicus, UniProt Q05941)
# Sequence (Q05941 whole entry): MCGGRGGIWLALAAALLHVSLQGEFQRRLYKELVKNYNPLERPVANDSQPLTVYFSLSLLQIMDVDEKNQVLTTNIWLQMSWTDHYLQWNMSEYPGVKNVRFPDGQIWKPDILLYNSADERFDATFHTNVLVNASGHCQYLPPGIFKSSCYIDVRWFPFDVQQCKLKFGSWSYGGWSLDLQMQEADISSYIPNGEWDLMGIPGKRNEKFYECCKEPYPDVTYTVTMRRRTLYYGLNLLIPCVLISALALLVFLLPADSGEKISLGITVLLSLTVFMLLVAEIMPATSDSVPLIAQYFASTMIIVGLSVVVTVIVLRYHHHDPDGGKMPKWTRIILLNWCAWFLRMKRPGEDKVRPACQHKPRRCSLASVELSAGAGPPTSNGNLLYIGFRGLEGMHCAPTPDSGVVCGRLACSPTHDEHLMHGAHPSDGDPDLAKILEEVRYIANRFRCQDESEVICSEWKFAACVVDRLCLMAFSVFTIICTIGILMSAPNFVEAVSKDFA
# procedureDetails: Inhibition of [3H]-MLA binding to alpha-7 nicotinic acetylcholine receptor of rat brain membrane
valueKind: Ki (µM)
Please respond with the number in µM and leave the unit unwritten.

Per the record, `CN1CCC[C@H]1c1ccc[n+]([BH2-]C#N)c1` has Ki of 15.2

----------
# systemName: Neuronal acetylcholine receptor subunit alpha-7 (Rattus norvegicus, UniProt Q05941)
# procedureDetails: Inhibition of [3H]MLA binding to rat alpha7 nicotinic acetylcholine receptor
valueKind: Ki (nM)
Please respond with the number in nM and leave the unit unwritten.

Per the record, `CN1CC[C@@H]2CCc3cc[n+]([BH2-]C#N)cc3[C@@H]21` has Ki of 2400

----------
# systemName: Neuronal acetylcholine receptor subunit alpha-7 (Rattus norvegicus, UniProt Q05941)
# procedureDetails: Effective concentration against rat alpha-7 nicotinic acetylcholine receptor
valueKind: EC50 (µM)
Please respond with the number in µM and leave the unit unwritten.

Per the record, `CN1CC[C@@H]2CCc3cc[n+]([BH2-]C#N)cc3[C@@H]21` has EC50 of 20

Per the record, `CN1CCC[C@H]1c1ccc[n+]([BH2-]C#N)c1` has EC50 of 21

----------
# systemName: Neuronal acetylcholine receptor subunit alpha-7 (Rattus norvegicus)
# procedureDetails: Maximal response against rat alpha-7 nicotinic acetylcholine receptor
valueKind: Imax
Enter a number only.

Per the record, `CN1CCC[C@H]1c1cccnc1` has Imax of 0.6

Per the record, `CN1CCC[C@H]1c1ccc[n+]([BH2-]C#N)c1` has Imax of 0.15

Per the record, `CN1CC[C@@H]2CCc3cc[n+]([BH2-]C#N)cc3[C@@H]21` has Imax of 0.26

Per the record, `CN1CC[C@@H]2CCc3ccncc3[C@@H]21` has Imax of 0.11

----------
# systemName: Neuronal acetylcholine receptor; alpha4/beta2 (Rattus norvegicus, UniProt P09483+P12390)
# Sequence (P09483 whole entry): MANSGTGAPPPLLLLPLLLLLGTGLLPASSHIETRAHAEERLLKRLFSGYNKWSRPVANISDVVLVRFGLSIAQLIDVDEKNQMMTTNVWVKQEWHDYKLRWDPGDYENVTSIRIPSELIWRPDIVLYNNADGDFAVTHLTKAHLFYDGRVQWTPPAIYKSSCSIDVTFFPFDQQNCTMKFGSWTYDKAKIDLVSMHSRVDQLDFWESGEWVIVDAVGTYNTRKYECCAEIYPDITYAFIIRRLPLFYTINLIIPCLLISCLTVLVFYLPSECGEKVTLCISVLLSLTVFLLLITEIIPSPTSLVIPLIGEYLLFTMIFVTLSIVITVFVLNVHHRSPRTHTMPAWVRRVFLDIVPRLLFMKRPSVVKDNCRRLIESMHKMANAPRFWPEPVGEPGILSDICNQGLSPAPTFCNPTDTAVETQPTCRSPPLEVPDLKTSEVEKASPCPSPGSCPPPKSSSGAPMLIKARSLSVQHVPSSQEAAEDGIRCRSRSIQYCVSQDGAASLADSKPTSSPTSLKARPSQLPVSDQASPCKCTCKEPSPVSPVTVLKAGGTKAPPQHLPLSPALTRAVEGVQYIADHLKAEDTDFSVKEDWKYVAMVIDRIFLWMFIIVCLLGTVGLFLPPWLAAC
# Sequence (P12390 whole entry): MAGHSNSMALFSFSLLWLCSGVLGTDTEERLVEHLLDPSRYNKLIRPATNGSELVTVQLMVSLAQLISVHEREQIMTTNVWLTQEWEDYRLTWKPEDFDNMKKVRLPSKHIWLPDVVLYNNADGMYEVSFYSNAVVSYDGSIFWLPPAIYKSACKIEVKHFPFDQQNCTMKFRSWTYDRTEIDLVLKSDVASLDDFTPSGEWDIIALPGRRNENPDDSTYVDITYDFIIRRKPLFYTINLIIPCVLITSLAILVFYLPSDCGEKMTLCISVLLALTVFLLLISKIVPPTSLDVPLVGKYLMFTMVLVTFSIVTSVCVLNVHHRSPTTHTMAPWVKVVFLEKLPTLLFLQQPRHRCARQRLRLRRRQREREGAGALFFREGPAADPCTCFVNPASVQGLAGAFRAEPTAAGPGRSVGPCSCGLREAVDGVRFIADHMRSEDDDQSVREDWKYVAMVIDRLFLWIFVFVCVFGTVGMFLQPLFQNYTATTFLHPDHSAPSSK
# procedureDetails: Inhibition of [3H]nicotine binding to alpha4-beta2 nicotinic acetylcholine receptor of rat brain membrane
valueKind: pKi
pKi (log units): -log10 of the concentration in mol/L.

Per the record, `CN1CCC[C@H]1c1ccc[n+]([BH2-]C#N)c1` has pKi of 7.39

Per the record, `CN1CC[C@H]2CCc3ncccc3[C@H]21` has pKi of 4.91

Per the record, `CN1CC[C@@H]2CCc3ccncc3[C@@H]21` has pKi of 6.40

Per the record, `CN1CC[C@@H]2CCc3cc[n+]([BH2-]C#N)cc3[C@@H]21` has pKi of 6.22
